Data provenance is patent US20170233413A1.

# Target desc: human phosphodiesterase 5 (PDE 5) (Homo sapiens)
# Construct: PDE 5 preparations are obtained from human platelets by disruption; from tissue; host or cells: human platelets
# Measurement description: Inhibition of human phosphodiesterase 5 (PDE 5)
# Format: biochemical
# Experimental setup: PDE 5 preparation from human platelets; in some cases means of individual determinations
Measured quantity: IC50 (nM)

Below, 10 molecules whose answers are already recorded.
Molecule | Target desc | IC50, nM
Cc1nc2c(cc1F)c(-c1nc3c(c(C(N)=O)n1)C(C)(C(F)(F)F)C(=O)N3)nn2Cc1ccccc1F (single isomer, unassigned; ent-2) [Example 14] | human phosphodiesterase 5 (PDE 5) (Homo sapiens) | 130
CC1(C)C(=O)Nc2nc(-c3nn(Cc4ccccc4F)c4ncc(F)cc34)nc(C(=O)NCCC(F)(F)F)c21 | human phosphodiesterase 5 (PDE 5) (Homo sapiens) | 87
CCC(=O)C(C)NC(=O)c1nc(-c2nn(Cc3ccccc3F)c3ncccc23)nc2c1C(C)(C)C(=O)N2 (racemic) | human phosphodiesterase 5 (PDE 5) (Homo sapiens) | 87
CC1(C)C(=O)Nc2nc(-c3nn(Cc4ccccc4F)c4ncccc34)nc(C(=O)NC3CCOCC3)c21 | human phosphodiesterase 5 (PDE 5) (Homo sapiens) | 33
CC1(C)C(=O)Nc2nc(-c3nn(Cc4ccccc4F)c4ncccc34)nc(C(=O)Nc3cc[nH]n3)c21 | human phosphodiesterase 5 (PDE 5) (Homo sapiens) | 24
CC1(C)C(=O)Nc2nc(-c3nn(Cc4ccccc4F)c4ncccc34)nc(C(=O)Nc3cc(F)cc(F)c3)c21 | human phosphodiesterase 5 (PDE 5) (Homo sapiens) | 60
COCCNC(=O)c1nc(-c2nn(Cc3cccc(F)c3F)c3nc(C)c(F)cc23)nc2c1C(C)(C)C(=O)N2 | human phosphodiesterase 5 (PDE 5) (Homo sapiens) | 88
CC1(C)C(=O)Nc2nc(-c3nn(Cc4ccccc4F)c4ncc(F)cc34)nc(C(=O)NCC3(O)CC3)c21 | human phosphodiesterase 5 (PDE 5) (Homo sapiens) | 51
CC1(C)C(=O)Nc2nc(-c3nn(Cc4ccccc4F)c4ncccc34)nc(C(=O)NC3(C4CC4)CC3)c21 | human phosphodiesterase 5 (PDE 5) (Homo sapiens) | 8.6
CC1(C)C(=O)Nc2nc(-c3nn(Cc4ccccc4F)c4cc(Cl)ccc34)nc(C(=O)NC3CC3)c21 | human phosphodiesterase 5 (PDE 5) (Homo sapiens) | 14

1 = CC(CNC(=O)c1nc(-c2nn(Cc3ccccc3F)c3ncccc23)nc2c1C(C)(C)C(=O)N2)N(C)C (racemic)
2 = Cc1nc2c(cc1F)c(-c1nc3c(c(C(=O)N(C)CCO)n1)C(C)(C)C(=O)N3)nn2Cc1cccc(F)c1F
Task for the reader: decide whether 1 or 2 has the larger IC50. The response must carry the label of the picked entry.
1
(1: 620 nM, 2: 240 nM)

P = Cc1nc2c(cc1F)c(-c1nc3c(c(C(N)=O)n1)C(C)(C(F)(F)F)C(=O)N3)nn2Cc1cccc(F)c1F (racemic)
Q = CC1(C)C(=O)Nc2nc(-c3nn(Cc4ccccc4F)c4cc(Cl)ccc34)nc(C(=O)NCC(F)(F)F)c21
Please indicate which item has the smaller measured IC50: P versus Q // return label of chosen record
P
(P: 58 nM, Q: 110 nM)

====

# IC50 per entry for human phosphodiesterase 5 (PDE 5) (Homo sapiens, UniProt O76074)
Measured quantity: IC50 (nM)

Molecule | IC50 (nM)
CC1(C)C(=O)Nc2nc(-c3nn(Cc4ccccc4F)c4ncccc34)nc(C(=O)NCCC(F)(F)F)c21 [Example 74] | 26
CCC(C)CNC(=O)c1nc(-c2nn(Cc3ccccc3F)c3ncccc23)nc2c1C(C)(C)C(=O)N2 (racemic) [Example 125] | 30
CC1(CNC(=O)c2nc(-c3nn(Cc4ccccc4F)c4ncccc34)nc3c2C(C)(C)C(=O)N3)COC1 [Example 103] | 10

a = Cc1ccncc1NC(=O)c1nc(-c2nn(Cc3ccccc3F)c3ncccc23)nc2c1C(C)(C)C(=O)N2 [Example 119]
b = CC1(C)C(=O)Nc2nc(-c3nn(Cc4ccccc4F)c4ncccc34)nc(C(=O)Nc3cc(F)c(F)c(F)c3)c21 [Example 77]
c = Cc1nc2c(cc1F)c(-c1nc3c(c(C(=O)NC(C4CC4)C4CC4)n1)C(C)(C)C(=O)N3)nn2Cc1cccc(F)c1F [Example 39]
d = CC1(C(F)(F)F)C(=O)Nc2nc(-c3nn(Cc4ncccc4F)c4ncc(F)cc34)nc(C(N)=O)c21 (single isomer, unassigned; ent-2) [Example 23]
List these items ordered by IC50, big to small. Arrange the labels as the request states and list them.
d, b, c, a
(d: 1300 nM, b: 87 nM, c: 34 nM, a: 10 nM)

====

# Target desc: recombinant guanylate cyclase reporter cell line (Rattus norvegicus, UniProt P19686+P20595)
# Construct: expressed in transfected cells
# Sequence (P19686 whole entry): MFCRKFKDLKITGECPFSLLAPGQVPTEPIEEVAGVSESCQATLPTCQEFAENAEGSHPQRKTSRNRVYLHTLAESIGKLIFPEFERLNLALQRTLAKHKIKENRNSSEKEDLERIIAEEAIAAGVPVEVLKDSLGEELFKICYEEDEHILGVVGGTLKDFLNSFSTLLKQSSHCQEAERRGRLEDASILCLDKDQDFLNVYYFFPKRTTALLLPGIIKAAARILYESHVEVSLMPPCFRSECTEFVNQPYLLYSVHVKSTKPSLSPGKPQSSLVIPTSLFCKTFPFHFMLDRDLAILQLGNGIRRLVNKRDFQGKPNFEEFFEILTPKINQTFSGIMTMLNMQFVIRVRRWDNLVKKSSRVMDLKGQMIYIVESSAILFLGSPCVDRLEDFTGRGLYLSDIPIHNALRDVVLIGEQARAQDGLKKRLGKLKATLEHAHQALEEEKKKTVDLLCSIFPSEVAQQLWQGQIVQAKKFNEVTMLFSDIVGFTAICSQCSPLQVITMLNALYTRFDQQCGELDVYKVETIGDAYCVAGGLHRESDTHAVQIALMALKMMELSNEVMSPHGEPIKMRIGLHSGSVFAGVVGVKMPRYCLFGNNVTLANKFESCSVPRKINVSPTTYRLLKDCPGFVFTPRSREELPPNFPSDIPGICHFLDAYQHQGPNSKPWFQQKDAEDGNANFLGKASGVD
# Sequence (P20595 whole entry): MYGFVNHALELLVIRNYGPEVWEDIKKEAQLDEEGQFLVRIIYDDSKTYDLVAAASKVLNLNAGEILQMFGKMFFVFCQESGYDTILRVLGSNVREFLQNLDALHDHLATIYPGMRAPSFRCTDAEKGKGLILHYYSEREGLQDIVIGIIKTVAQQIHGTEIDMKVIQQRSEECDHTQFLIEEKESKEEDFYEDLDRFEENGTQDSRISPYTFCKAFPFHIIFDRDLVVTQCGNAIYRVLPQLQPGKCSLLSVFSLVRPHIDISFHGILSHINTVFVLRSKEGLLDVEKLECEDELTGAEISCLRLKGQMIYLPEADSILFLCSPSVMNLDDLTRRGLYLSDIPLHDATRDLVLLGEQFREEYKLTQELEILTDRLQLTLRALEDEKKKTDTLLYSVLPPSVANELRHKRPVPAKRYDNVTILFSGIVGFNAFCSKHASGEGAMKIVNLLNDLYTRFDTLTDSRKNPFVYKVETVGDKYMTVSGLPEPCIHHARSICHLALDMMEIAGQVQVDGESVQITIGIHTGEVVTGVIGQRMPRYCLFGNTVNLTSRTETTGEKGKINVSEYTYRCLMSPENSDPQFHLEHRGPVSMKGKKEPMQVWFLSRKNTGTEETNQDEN
# Measurement description: Effect on a recombinant guanylate cyclase reporter cell line
# Type: cell-based
# Experimental setup: MEC = minimum effective concentration; in some cases means of individual determinations
Measured quantity: MEC (µM)

For orientation, consider the following solved cases.
Compound | Unit abbrev | MEC
CC1(C)C(=O)Nc2nc(-c3nn(Cc4ccccc4F)c4ncccc34)nc(C(=O)NCc3ccco3)c21 | µM | 0.1
Cc1nc2c(cc1F)c(-c1nc3c(c(C(=O)NC(C4CC4)C4CC4)n1)C(C)(C)C(=O)N3)nn2Cc1cccc(F)c1F | µM | 0.3
CC1(C)C(=O)Nc2nc(-c3nn(Cc4ccccc4F)c4ncccc34)nc(C(=O)NCC3CC3)c21 | µM | 0.1
CCCNC(=O)c1nc(-c2nn(Cc3ccccc3F)c3ncccc23)nc2c1C(C)(C)C(=O)N2 | µM | 0.1
CC1(C)C(=O)Nc2nc(-c3nn(Cc4ccccc4F)c4cc(Cl)ccc34)nc(C(=O)NCC(F)(F)F)c21 | µM | 0.3
CCC(CC)CNC(=O)c1nc(-c2nn(Cc3ccccc3F)c3ncccc23)nc2c1C(C)(C)C(=O)N2 | µM | 1

A = Cc1cccnc1NC(=O)c1nc(-c2nn(Cc3ccccc3F)c3ncccc23)nc2c1C(C)(C)C(=O)N2
B = Cn1nccc1NC(=O)c1nc(-c2nn(Cc3ccccc3F)c3ncccc23)nc2c1C(C)(C)C(=O)N2
C = CN(CCO)C(=O)c1nc(-c2nn(Cc3ncccc3F)c3ncc(F)cc23)nc2c1C(C)(C)C(=O)N2
Rank entries according to their MEC, from the largest number down. // respond by listing labels in the order requested
C, B, A

P = Cc1nc2c(cc1F)c(-c1nc3c(c(C(N)=O)n1)C(C)(C(F)(F)F)C(=O)N3)nn2Cc1ncccc1F (racemic) [Example 18]
Q = CC1(C)C(=O)Nc2nc(-c3nn(Cc4ccccc4F)c4ncccc34)nc(C(=O)NCCC(F)(F)F)c21
R = CC1(C)C(=O)Nc2nc(-c3nn(Cc4ncccc4F)c4ncc(F)cc34)nc(C(=O)NC(C3CC3)C3CC3)c21
Arrange the 3 compounds from largest to smallest MEC. Answer by naming the labels in the order asked.
R, P, Q

1 = CSCCCNC(=O)c1nc(-c2nn(Cc3ccccc3F)c3ncccc23)nc2c1C(C)(C)C(=O)N2
2 = Cc1nc2c(cc1F)c(-c1nc3c(c(C(N)=O)n1)C(C)(C(F)(F)F)C(=O)N3)nn2Cc1cccc(F)c1F (single isomer, unassigned; ent-2) [Example 10]
# min-compare on MEC between 1 and 2 Bench note: the answer is the label of the chosen record.
1

I = CC1(C)C(=O)Nc2nc(-c3nn(Cc4ccccc4F)c4ncccc34)nc(C(=O)N3CCC(O)C3)c21 (centres unmarked)
II = CC(C)(C)CCNC(=O)c1nc(-c2nn(Cc3ccccc3F)c3ncccc23)nc2c1C(C)(C)C(=O)N2
Identify the entry with the smaller MEC: I or II . Identify your pick by its label.
I

I = CC1(C)C(=O)Nc2nc(-c3nn(Cc4ccccc4F)c4cc(Cl)ccc34)nc(C(=O)NCCC(F)(F)F)c21
II = CC(C)(N)CNC(=O)c1nc(-c2nn(Cc3ccccc3F)c3ncc(F)cc23)nc2c1C(C)(C)C(=O)N2
// compare: I vs II , metric MEC, want the smaller Record your answer as the label of the chosen record.
I

P = CC(C)CCNC(=O)c1nc(-c2nn(Cc3ccccc3F)c3ncccc23)nc2c1C(C)(C)C(=O)N2
Q = CC(C)CNC(=O)c1nc(-c2nn(Cc3ccccc3F)c3ncccc23)nc2c1C(C)(C)C(=O)N2
R = Cc1nc2c(cc1F)c(-c1nc3c(c(C(=O)N(C)CCO)n1)C(C)(C)C(=O)N3)nn2Cc1cccc(F)c1F
S = CC1(C)C(=O)Nc2nc(-c3nn(Cc4ccccc4F)c4ncccc34)nc(C(N)=O)c21
// smallest MEC at index 0, largest at the end Form entry: labels listed in requested order.
R, S, Q, P

P = CC1(C)C(=O)Nc2nc(-c3nn(Cc4ccccc4F)c4cc(Cl)ccc34)nc(C(=O)NC3CC3)c21
Q = CC1(C)C(=O)Nc2nc(-c3nn(Cc4ccccc4F)c4ncccc34)nc(C(=O)NCCOCC(F)(F)F)c21
R = CCNC(=O)c1nc(-c2nn(Cc3ccccc3F)c3ncccc23)nc2c1C(C)(C)C(=O)N2
Exam item: list the entries in increasing order of MEC. // rank by listing labels in the order requested
Q, R, P

A = CC1(C)C(=O)Nc2nc(-c3nn(Cc4ccccc4F)c4cc(Cl)ccc34)nc(C(=O)NCC3CC3)c21
B = CC1(C)C(=O)Nc2nc(-c3nn(Cc4ccccc4F)c4ncc(F)cc34)nc(C(=O)NCCC(F)(F)F)c21
Which of these two has the smaller recorded MEC: A or B ? Bench note: the answer is the label of the chosen record.
B

1 = CC(C)(O)CNC(=O)c1nc(-c2nn(Cc3ccccc3F)c3ncccc23)nc2c1C(C)(C)C(=O)N2
2 = CC1(C)C(=O)Nc2nc(-c3nn(Cc4ccccc4F)c4ncccc34)nc(C(=O)NCc3ccncc3)c21
Please compare: 1 and 2 . Report which one has the smaller MEC value. Reply briefly: the label of your chosen item.
2
(2: 0.1 µM, 1: 0.3 µM)
